target: human DGKζ (Homo sapiens); construct: TVMV protease cleavage site (C); Hexa-His (C); made in house; host or cells: Sf9 insect cells (baculovirus, Bac-to-Bac); test: DGKζ LIPGLO assay (extruded liposome substrate), in vitro DGK inhibition; format: biochemical; details: DGKζ liposome (LIPGLO) assay; read-out: DGKz LIPGLO IC50
Label yes (1) when IC50 is strictly below 500 nM; at or above that, label no (0).

{"columns": ["compound", "class_label"],
 "data": [
  ["Cc1ccc(C(c2ccc(F)cc2)N2CCN(c3c(C#N)c(=O)n(C)c4ccc(C#N)nc34)C[C@H]2C)cc1 (stereo partly drawn) [Example 889]", "yes (1)"]
]}

Okay, now this compound:
Input: Input C[C@@H]1CN(c2c(C#N)c(=O)n(C)c3ccc(C#N)nc23)[C@@H](C)CN1C(c1ccc(F)cc1)c1ccc(F)cn1 (stereo partly drawn) [Example 827] ; condition: IC50 strictly below 500 nM. Does it hold?
Output: no (0)

====

molecular target: human DGKζ (Homo sapiens, UniProt Q13574); construct: TVMV protease cleavage site (C); Hexa-His (C); made in house; host or cells: Sf9 insect cells (baculovirus, Bac-to-Bac); test: DGKζ LIPGLO assay (extruded liposome substrate), in vitro DGK inhibition; type: biochemical; settings: liposome (LIPGLO) assay; read-out: DGKz LIPGLO IC50
Sequence (Q13574 with tags, fused parts or gaps isoform Q13574-4): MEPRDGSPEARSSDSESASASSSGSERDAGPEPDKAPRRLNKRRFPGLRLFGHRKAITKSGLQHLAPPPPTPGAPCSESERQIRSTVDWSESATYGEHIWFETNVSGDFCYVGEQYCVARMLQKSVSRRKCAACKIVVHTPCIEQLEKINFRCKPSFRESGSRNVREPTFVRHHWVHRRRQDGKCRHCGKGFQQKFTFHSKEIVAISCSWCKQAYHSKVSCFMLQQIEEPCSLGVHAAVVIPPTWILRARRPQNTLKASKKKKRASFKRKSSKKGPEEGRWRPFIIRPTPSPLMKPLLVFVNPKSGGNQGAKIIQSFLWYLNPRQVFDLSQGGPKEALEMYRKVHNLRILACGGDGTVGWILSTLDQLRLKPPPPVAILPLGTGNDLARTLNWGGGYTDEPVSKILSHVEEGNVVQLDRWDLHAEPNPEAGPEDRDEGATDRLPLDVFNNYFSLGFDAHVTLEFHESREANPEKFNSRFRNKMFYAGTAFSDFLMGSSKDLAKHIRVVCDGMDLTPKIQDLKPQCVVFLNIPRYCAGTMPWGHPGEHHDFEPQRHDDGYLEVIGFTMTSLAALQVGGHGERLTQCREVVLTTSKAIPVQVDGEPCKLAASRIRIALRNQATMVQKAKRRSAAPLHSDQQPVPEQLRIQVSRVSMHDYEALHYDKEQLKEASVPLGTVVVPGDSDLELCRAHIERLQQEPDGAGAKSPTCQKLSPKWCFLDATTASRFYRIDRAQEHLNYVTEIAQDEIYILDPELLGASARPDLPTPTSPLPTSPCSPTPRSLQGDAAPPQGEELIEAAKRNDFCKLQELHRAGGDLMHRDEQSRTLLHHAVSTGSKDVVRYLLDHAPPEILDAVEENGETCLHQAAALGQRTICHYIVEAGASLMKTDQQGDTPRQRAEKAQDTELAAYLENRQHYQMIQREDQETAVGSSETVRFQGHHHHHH
Label true when IC50 is strictly below 1 µM; at or above that, label false.

Example cases with answers are listed next.
{"columns": ["compound", "class_label"],
 "data": [
  ["CC(c1cc(C2CC2)on1)N1C[C@H](C)N(c2cc(=O)n(C)c3ccc(C#N)nc23)C[C@H]1C (single isomer, unassigned) [Example 1281]", "false"],
  ["Cc1ccc(C(c2cccc3c2OCCCO3)N2C[C@H](C)N(c3cc(=O)n(C)c4ccc(C#N)nc34)C[C@H]2C)nc1 (single isomer, unassigned) [Example 469]", "true"],
  ["CC(c1cccc(C(F)(F)F)n1)N1C[C@H](C)N(c2cc(=O)n(C)c3ccc(C#N)nc23)C[C@H]1C (single isomer, unassigned) [Example 637]", "true"]
]}

Input: Input C[C@@H]1CN(c2cc(=O)n(C)c3ccc(C#N)nc23)[C@@H](C)CN1C(c1ccccc1)c1ccc(F)cc1 (mixture of isomers) ; condition: IC50 strictly below 1 µM. Does it hold?
Output: false

Input: Input COC[C@@H]1CN(c2cc(=O)n(C)c3ccc(C#N)nc23)[C@@H](C)CN1C(c1ccc(F)cc1)c1nc(C2CC2)cs1 (single isomer, unassigned) [Example 1396] ; condition: IC50 strictly below 1 µM. Does it hold?
Output: true

Input: Input C[C@@H]1CN(c2cc(=O)n(C)c3ccc(C#N)nc23)[C@@H](C)CN1Cc1ccc(OC(F)(F)F)c(C#N)c1 ; condition: IC50 strictly below 1 µM. Does it hold?
Output: false

====

target: human DGKα (Homo sapiens, UniProt P23743); construct: TVMV protease cleavage site (C); Hexa-His (C); made in house; host or cells: Sf9 insect cells (baculovirus, Bac-to-Bac); assay: DGKα LIPGLO assay (extruded liposome substrate), in vitro DGK inhibition; type: biochemical; conditions: liposome (LIPGLO) assay; read-out: DGKa LIPGLO IC50
Sequence (P23743 with tags, fused parts or gaps): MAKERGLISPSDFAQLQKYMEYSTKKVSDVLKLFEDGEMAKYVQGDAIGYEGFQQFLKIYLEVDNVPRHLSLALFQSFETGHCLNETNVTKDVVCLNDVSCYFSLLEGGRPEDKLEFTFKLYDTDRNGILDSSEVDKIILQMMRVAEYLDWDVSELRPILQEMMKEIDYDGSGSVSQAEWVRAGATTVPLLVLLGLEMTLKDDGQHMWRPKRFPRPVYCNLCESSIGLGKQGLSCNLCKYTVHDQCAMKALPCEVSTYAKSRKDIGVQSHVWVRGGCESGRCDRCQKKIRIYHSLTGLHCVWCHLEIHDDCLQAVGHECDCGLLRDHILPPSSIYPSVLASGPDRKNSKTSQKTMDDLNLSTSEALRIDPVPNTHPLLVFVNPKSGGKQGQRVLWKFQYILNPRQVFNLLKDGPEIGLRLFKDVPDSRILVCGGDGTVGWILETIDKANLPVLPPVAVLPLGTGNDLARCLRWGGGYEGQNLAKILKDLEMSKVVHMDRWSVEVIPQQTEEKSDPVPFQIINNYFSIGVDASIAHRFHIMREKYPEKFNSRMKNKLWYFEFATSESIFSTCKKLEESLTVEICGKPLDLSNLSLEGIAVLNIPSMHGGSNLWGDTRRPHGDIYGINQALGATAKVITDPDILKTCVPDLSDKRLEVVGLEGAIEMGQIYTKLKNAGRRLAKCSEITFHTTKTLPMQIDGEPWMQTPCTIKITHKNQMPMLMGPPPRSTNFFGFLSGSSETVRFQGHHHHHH
# reported IC50; entries follow
Entry rule: numbers only, all in µM.

Input: Return reported IC50; argument: COC[C@@H]1CN(c2cc(=O)n(C)c3ccc(C#N)nc23)[C@@H](C)CN1C(C)c1ccc(F)cc1 (single isomer, unassigned) [Example 1159]
Output: 0.36

Input: Return reported IC50; argument: Cc1cc(C(C)N2C[C@H](C)N(c3cc(=O)n(C)c4ccc(C#N)nc34)C[C@H]2C)ccc1F (stereo partly drawn) [Example 1255]
Output: 3.1

Input: Return reported IC50; argument: CC(c1ccc(C2CC2)cc1F)N1C[C@H](C)N(c2cc(=O)n(C)c3ccc(C#N)nc23)C[C@H]1C (single isomer, unassigned) [Example 1200]
Output: 0.25

Input: Return reported IC50; argument: CCc1cc(F)ccc1C(c1ccc(Cl)cc1)N1C[C@H](C)N(c2cc(=O)n(C)c3ccc(OC)nc23)C[C@H]1C (single isomer, unassigned) [Example 232]
Output: 240

Input: Return reported IC50; argument: C[C@@H]1CN(c2cc(=O)n(C)c3ccc(C#N)nc23)[C@@H](C)CN1C(c1c(F)cc(O)cc1F)C(F)(F)F (single isomer, unassigned) [Example 627]
Output: 5.4

Input: Return reported IC50; argument: CC(C)Oc1ccc(C(C)N2C[C@H](C)N(c3cc(=O)n(C)c4ccc(C#N)nc34)C[C@H]2C)cn1 (single isomer, unassigned) [Example 1324]
Output: 12
